Would you mind telling me the reported binding signal of each entry?
- TARGET SYSTEM: OsWOX13 (Oryza sativa, UniProt Q5QMM3 1-267)
- Sequence: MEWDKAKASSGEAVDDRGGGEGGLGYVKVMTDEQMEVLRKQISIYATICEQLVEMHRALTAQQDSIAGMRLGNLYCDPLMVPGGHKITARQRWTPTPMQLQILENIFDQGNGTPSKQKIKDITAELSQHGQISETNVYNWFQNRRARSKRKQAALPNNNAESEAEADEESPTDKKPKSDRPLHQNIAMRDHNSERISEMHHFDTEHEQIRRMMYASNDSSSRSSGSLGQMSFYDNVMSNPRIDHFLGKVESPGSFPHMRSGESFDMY
- TEST DETAILS: protein-binding microarray (RPBM); PBS, 2% BSA, 51.3 ng/ul salmon testes DNA, 50 uM zinc acetate, 200 nM TF, 25 C, 1 h; high values mean tight binding
- CONDITION INFO: protein: recombinant; tags: N-terminal polyhistidine and DsRed monomer fusion (pET32a); label: CyDye5-dUTP incorporated in the synthesized complementary strand; 3' TTTTT single-stranded linker to array surface; dsDNA, one strand shown
In all, about 35,000 sequences were measured (“fluorescence intensity (a.u.)”: median about 10,000, highest 2% from about 52,000 on). The sample as a whole holds a higher share of the highest values than the screen did.

• ATTGATTATTATTTTAAAATAAAATGGCGTGTTAGGTTTTCGGAGTCACCTAGTGCAG = 47300 fluorescence intensity (a.u.)
• CTCTAATGAATGTGCATGTTATGTTTCCAAATCTCACTAGCGGAGTCACCTAGTGCAG = 3850 fluorescence intensity (a.u.)
• TCTGATTAATTTGACGGCCACAAAATACTTAGTTTGGCAACGGAGTCACCTAGTGCAG = 65000 fluorescence intensity (a.u.)

Provide binding signal for all items below, preserving their order.
1. AAAATTATGGATTGGATGATTAATCACTGATAGGTAGTACCGGAGTCACCTAGTGCAG
2. ATGATTGGAGTCAAATTGAACTTGTACTGATGTGGAGGAGCGGAGTCACCTAGTGCAG

["56900 fluorescence intensity (a.u.)", "53400 fluorescence intensity (a.u.)"]

Go through the list and state binding signal for each entry.
1. TGGTGTAGGGTTATGATTGGATGAGTAGTGGAGGTAGGTACGGAGTCACCTAGTGCAG
2. TTGTGAAATGTTGATGAGGCTGATTGAGCGAGAAGCAGTGCGGAGTCACCTAGTGCAG
3. TCGGTATTGTGATTGAGGGGTAAGAGTAAGTTTCGGCCACCGGAGTCACCTAGTGCAG
4. TTAATTTGTTGTGATTAACGTGGCATGCATGACACTAAAGCGGAGTCACCTAGTGCAG
5. GATGATTGACTTATTATGCTATAATAATATGCTGAATGAACGGAGTCACCTAGTGCAG
6. TTCAAATTTAATGCAAAGATTAAGTTGATGAGAAACGACGCGGAGTCACCTAGTGCAG
7. TTCACTAATCAATCAACTTAATTTGCTCTGTCAATGTGCACGGAGTCACCTAGTGCAG

8550 fluorescence intensity (a.u.)
20000 fluorescence intensity (a.u.)
18700 fluorescence intensity (a.u.)
26900 fluorescence intensity (a.u.)
40600 fluorescence intensity (a.u.)
6640 fluorescence intensity (a.u.)
61700 fluorescence intensity (a.u.)

Each sequence below has a reported value. Please supply its binding signal.
1. AGTAATTGATTAATTTTGTGACAGAGGTGGTCACTATATGCGGAGTCACCTAGTGCAG
2. CCCGTGGCTCGACTTGATGGCGTGGAGAATGGACGAGTACCGGAGTCACCTAGTGCAG
3. TTAAGTAATTAAGAGGTGATAGTTAATTTATGCATGCATGCGGAGTCACCTAGTGCAG
4. GTTACTGCATGATTTGCTAGATGTATTTTATGACAACAGACGGAGTCACCTAGTGCAG
5. CTAATTGAATAATCAAAATTTTAATCTTTGGTCGATAATGCGGAGTCACCTAGTGCAG
6. GAATCTTGAAATTGAGCTGATTAATTTTCTTCTTGTTGAGCGGAGTCACCTAGTGCAG

["61000 fluorescence intensity (a.u.)", "6970 fluorescence intensity (a.u.)", "30400 fluorescence intensity (a.u.)", "12900 fluorescence intensity (a.u.)", "63700 fluorescence intensity (a.u.)", "11800 fluorescence intensity (a.u.)"]

Quick request: binding signal for each listed item, please.
1. CTTTATTGATAGGATAAAATTGTTACATCGTTTACCAGATCGGAGTCACCTAGTGCAG
2. GGATAAAATTTAAATTGTACCAGTTTACGACGAATTACATCGGAGTCACCTAGTGCAG
3. ATACATTAATTTGATGCCCCAATAGAAGCACGCCAATCATCGGAGTCACCTAGTGCAG
4. TGTATGATTTATGTATAATTAGAGATATACAATCATATAACGGAGTCACCTAGTGCAG
5. CACTATCTGATCCTAATTACACACTGATGCAGGGGTAAATCGGAGTCACCTAGTGCAG
6. TCATAAATTATTTATAATTGCCTTGCTTAATTTACGCCTTCGGAGTCACCTAGTGCAG
7. ATTAAATTTGAAAATTTATTAAATTGTGCTGATAAGTCAACGGAGTCACCTAGTGCAG
8. GAACAGGTAATTTAAAATTGATGGAGTTCATAGGATGTCACGGAGTCACCTAGTGCAG

1. 52600 fluorescence intensity (a.u.)
2. 8600 fluorescence intensity (a.u.)
3. 12000 fluorescence intensity (a.u.)
4. 16900 fluorescence intensity (a.u.)
5. 3790 fluorescence intensity (a.u.)
6. 28900 fluorescence intensity (a.u.)
7. 14500 fluorescence intensity (a.u.)
8. 24200 fluorescence intensity (a.u.)

====

Kindly state binding signal for each of the entries shown.
- TARGET SYSTEM: OsWOX13 (Oryza sativa, UniProt Q5QMM3 1-267)
- Sequence: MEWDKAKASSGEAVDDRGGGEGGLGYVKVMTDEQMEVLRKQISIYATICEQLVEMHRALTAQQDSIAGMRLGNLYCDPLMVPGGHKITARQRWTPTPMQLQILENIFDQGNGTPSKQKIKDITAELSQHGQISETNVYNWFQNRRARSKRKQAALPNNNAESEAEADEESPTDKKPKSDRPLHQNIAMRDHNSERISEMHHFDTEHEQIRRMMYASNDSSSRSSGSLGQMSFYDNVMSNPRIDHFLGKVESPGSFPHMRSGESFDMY
- TEST DETAILS: protein-binding microarray (RPBM); PBS, 2% BSA, 51.3 ng/ul salmon testes DNA, 50 uM zinc acetate, 200 nM TF, 25 C, 1 h; high values mean tight binding
- CONDITION INFO: protein: recombinant; tags: N-terminal polyhistidine and DsRed monomer fusion (pET32a); label: CyDye5-dUTP incorporated in the synthesized complementary strand; 3' TTTTT single-stranded linker to array surface; dsDNA, one strand shown
The full ranking holds about 35,000 sequences; the median of “fluorescence intensity (a.u.)” is about 10,000, and the highest 2% start at about 52,000. The full list was thinned out, with the highest values kept by preference.

A selection of reference data follows.
* AATCTTTTCTTAATTCTATAATTATCCTTAACGAATTAGTCGGAGTCACCTAGTGCAG | 4150 fluorescence intensity (a.u.)
* ATTAATTATTTATTTCTTATATTACAGATTTTCAGTATATCGGAGTCACCTAGTGCAG | 18600 fluorescence intensity (a.u.)
* TGACTCTTATTTAACGACTGATTGTTGTCAAGATAATGAACGGAGTCACCTAGTGCAG | 3770 fluorescence intensity (a.u.)
* CGACTGGATTGAAGCATTTTCTGCCTAGCTGTCTGTCTCTCGGAGTCACCTAGTGCAG | 10100 fluorescence intensity (a.u.)
* ACTAGTTAATCACGATTGATGGAAGCGGTTGATTGAATGACGGAGTCACCTAGTGCAG | 51400 fluorescence intensity (a.u.)
* TTTAATTGTATTAACACTCGTGAGAATGATACATGAGATCCGGAGTCACCTAGTGCAG | 29000 fluorescence intensity (a.u.)
* ATTGATTGATCAAGACTGCATGGCAATACTCGACGTGCTGCGGAGTCACCTAGTGCAG | 64800 fluorescence intensity (a.u.)
* GCTTAATTAGCCGCTTCAGTTGCACAGTAACTGAGGAACCCGGAGTCACCTAGTGCAG | 32700 fluorescence intensity (a.u.)

Batch: binding signal for all items listed.
1. GAACTAGCTTAATTAAACCACAATTAGAATATATGTAGGACGGAGTCACCTAGTGCAG
2. CTCATGATTTACGGCTGCTGGCCGCCGGGCTATTTAACCACGGAGTCACCTAGTGCAG

1. 3750 fluorescence intensity (a.u.)
2. 10900 fluorescence intensity (a.u.)

State recorded binding signal for all listed sequences.
1. CCAATAATAACACTGATCACTGATCAATCATGGCATCATGCGGAGTCACCTAGTGCAG
2. GTAATTAATTAACATTGCAATTAAGCACATAAGTTAATCACGGAGTCACCTAGTGCAG

1. 16000 fluorescence intensity (a.u.)
2. 27000 fluorescence intensity (a.u.)

Cited source: paper PMC7819943
